Reference for the values: PubChem BioAssay (NCI)

Reported growth is given for each of the following compounds.
# Tested on: SNB-19 CNS
# method-summary: NCI-60 one-dose screen, 48 h (100 = growth as untreated, 0 = no growth, -100 = all killed)
# study-conditions: 10 µM
The panel holds about 83,000 compounds, 20% with a hit somewhere; the sample as a whole holds those more often.
Answer with a number only, understood to be in %.

INSERT INTO assay_data (compound, unit_text, reported) VALUES
  ('CS(=O)(=O)OC1CC(n2ccc(=O)[nH]c2=O)OC1COC(c1ccccc1)(c1ccccc1)c1ccccc1 (centres undefined)', '%', 99.8),
  ('Cc1nc(N=C(N)N)nc2ccc3ccccc3c12', '%', -11.5),
  ('Clc1ccc(/C=C/c2ccccn2)c(Cl)c1', '%', 92.7),
  ('NC1=C(Cl)C(=O)c2ccccc2C1=O', '%', 72.1),
  ('CN1CCN(CCCN2c3ccccc3Sc3ccc(C(F)(F)F)cc32)CC1', '%', 73.8);

Could you now consider this next compound?
Lab note: CSC1SCC2C(=O)N(C)C(C(C)C)C(=O)OCC(NC(=O)c3cnc4ccccc4n3)C(=O)NC(C)C(=O)N(C)C1C(=O)N(C)C(C(C)C)C(=O)OCC(NC(=O)c1cnc3ccccc3n1)C(=O)NC(C)C(=O)N2C (centres undefined) gave growth of -13.3

###

# Test system: 786-0 renal
# method-summary: NCI-60 one-dose screen, 48 h
# study-conditions: 10 µM
Compounds without any hit were thinned out: in the full panel of roughly 83,000, 20% have a hit. Activity calls are given as the source filed them. How the source made its calls: active means growth percent below 10; inactive means the rest.
In this exercise, the only acceptable responses are 1 (yes) = active, 0 (no) = inactive

INSERT INTO results (molecule, group_label) VALUES
  ('COc1ccc(CC(=O)c2ccc(O)cc2O)cc1', '0 (no)'),
  ('O=C1C=C(O)c2ccccc2C1=O.[Ag]', '0 (no)'),
  ('OC(CN1CCCC2CCCCC21)c1cc2ccccc2c2ccccc12 (stereo not given)', '1 (yes)'),
  ('COC1OCC(O)C(O)C1O (stereo not given)', '0 (no)'),
  ('COc1c(O)cc2oc3cc(O)c(CC=C(C)C)c(O)c3c(=O)c2c1CC=C(C)C', '0 (no)'),
  ('Clc1cc(Cl)c(Cl)nn1', '0 (no)');

Switching to the query record.
Q: Could you kindly confirm the outcome this assay logged for `O=C(/C=C/c1ccccn1)c1ccccc1` ?
Ans: 0 (no)

###

# Tested on: K-562 leukemia
# method-summary: NCI-60 one-dose screen, 48 h (100 = growth as untreated, 0 = no growth, -100 = all killed)
# study-conditions: 10 µM
# Protocol: Cells are grown in 96 well plates and exposed to the test compound for 48 hours. Compounds are tested at a single concentration, which is 10^-5 M for most compounds. The reported endpoint is percent growth (GI% or GIPRCNT), where numbers from 0 - 100% represent growth inhibition, and numbers from -100% - 0 represent cell death. For example, a value of 40 represents 60% growth inhibition. A value of 0 means no net growth occurred over the course of the experiment. […]
The panel holds about 83,000 compounds, 20% with a hit somewhere; the sample as a whole holds those more often. Active and inactive are the calls of the source. The calls were made as follows: active = growth percent below 10; inactive = the rest.
growth reference

These solved cases illustrate the format of a correct answer.
INSERT INTO assay_data (compound, reported) VALUES
  ('CN1CCN(CCCN2c3ccccc3Sc3ccc(C(F)(F)F)cc32)CC1', '-11.9% (active)'),
  ('Cc1cc(O)c(C(C)C)cc1Cl', '96.8% (inactive)'),
  ('CCCCCCCCCCCC[N+](C)(C)Cc1ccccc1', '-5.13% (active)'),
  ('O=c1ccn(C2CC(O)C(COC(c3ccccc3)(c3ccccc3)c3ccccc3)O2)c(=O)[nH]1 (stereo unspecified)', '79.1% (inactive)'),
  ('N=S(c1ccccc1[N+](=O)[O-])c1ccccc1[N+](=O)[O-]', '1.79% (active)'),
  ('NNc1c2ccccc2nc2ccccc12', '49.2% (inactive)');

Please turn your attention to the following entry.
// CS(=O)(=O)OC1CC(n2ccc(=O)[nH]c2=O)OC1COC(c1ccccc1)(c1ccccc1)c1ccccc1 (stereo unspecified) : growth value = 98.5% (inactive)

###

# Lookup of reported growth keyed by entry
# System: HCT-116 colon
# method-summary: NCI-60 one-dose screen, 48 h (100 = growth as untreated, 0 = no growth, -100 = all killed)
# study-conditions: 10 µM
# Procedure: Growth inhibition of the HCT-116 human tumor cell line is measured as a screen for anti-cancer activity. Cells are grown in 96 well plates and exposed to the test compound for 48 hours. Compounds are tested at a single concentration, which is 10^-5 M for most compounds. The reported endpoint is percent growth (GI% or GIPRCNT), where numbers from 0 - 100% represent growth inhibition, and numbers from -100% - 0 represent cell death. For example, a value of 40 represents 60% growth inhibition. […]
This is part of a sample that, as a whole, favours compounds with a hit. Of some 83,000 tested, about 20% had one in any assay.
Quick note: give the figure in %, leave out the unit.

INSERT INTO results (compound, unit_text, reported) VALUES
  ('CN1CCN(CCCN2c3ccccc3Sc3ccc(C(F)(F)F)cc32)CC1', '%', 36),
  ('O=C1NC(=O)c2cc([N+](=O)[O-])ccc21', '%', 116),
  ('COc1c(O)cc2oc3cc(O)c(CC=C(C)C)c(O)c3c(=O)c2c1CC=C(C)C', '%', 23.7);

`O=C(/C=C/c1cccnc1)c1ccccc1` yielded growth of 21.1

Input `O=C1C=C(O)c2ccccc2C1=O.[Ag]` . Output growth: 111

Note to self: growth recorded for CCN(CC)c1ccc(NC(C(=O)c2ccccc2)c2ccccc2)cc1 (stereo unspecified) was -19.6

###

# Test system: MCF7 breast
# method-summary: NCI-60 one-dose screen, 48 h (100 = growth as untreated, 0 = no growth, -100 = all killed)
# study-conditions: 10 µM
The panel holds about 83,000 compounds, 20% with a hit somewhere; the sample as a whole holds those more often. Activity calls are given as the source filed them. Rule for the calls: active = growth percent below 10; inactive = the rest.
Quick list: growth per entry.

INSERT INTO assay_data (compound, reported) VALUES
  ('NC1=C(Cl)C(=O)c2ccccc2C1=O', '48.3% (inactive)'),
  ('CC(C)(C)CC(C)(C)c1ccc(OCCO)cc1', '137% (inactive)'),
  ('O=C1C=CC(=CC=C2C=CN(CCCCCCCCCCCO)C=C2)C=C1', '8.64% (active)');

Sample `NC(=O)SCC(=O)NNc1ccccc1` ; growth observed: 94.2% (inactive)

Sure, the documented growth for COc1cccc2c1C(=O)c1c(O)c3c(c(O)c1C2=O)C[C@@](O)(C(=O)CO)C[C@@H]3OC1CC(N)C(O)C(C)O1 (stereo not given in full) is 3.37% (active)

Per the records, this compound ( `O=C(/C=C/c1cccnc1)c1ccccc1` ) has growth equal to 26.1% (inactive)

// recorded growth for CSC1SCC2C(=O)N(C)C(C(C)C)C(=O)OCC(NC(=O)c3cnc4ccccc4n3)C(=O)NC(C)C(=O)N(C)C1C(=O)N(C)C(C(C)C)C(=O)OCC(NC(=O)c1cnc3ccccc3n1)C(=O)NC(C)C(=O)N2C (stereo not given) : 2.56% (active)

###

Listed here are compounds together with their documented growth.
# System: OVCAR-4 ovarian
# method-summary: NCI-60 one-dose screen, 48 h (100 = growth as untreated, 0 = no growth, -100 = all killed)
# study-conditions: 10 µM
Compounds without any hit were thinned out: in the full panel of roughly 83,000, 20% have a hit.
Output spec: scalar in %, unitless text.

INSERT INTO assay_data (compound, experimental_target, reported) VALUES
  ('O=c1ccn(C2CC(O)C(COC(c3ccccc3)(c3ccccc3)c3ccccc3)O2)c(=O)[nH]1 (configuration not stated)', 'OVCAR-4 ovarian', 94.5),
  ('CCCCCC(C)c1ccc(O)c(C)c1 (configuration not stated)', 'OVCAR-4 ovarian', 95.5),
  ('CCCCCCCCCCSC(=N)N', 'OVCAR-4 ovarian', 76.7);

The reported growth of the compound `CCO/C=C1\SC(=S)N(c2cccc(O)c2)C1=O` was 93.8

GET /value?item= `CCC(C)(C)c1cc(O)c(C(C)(C)CC)cc1O` &field=growth returns 28

# growth of `CCN1/C(=C/C=C/C=C/c2sc3ccccc3[n+]2CC)Sc2ccccc21` = -42

Notebook: `NC1=C(Cl)C(=O)c2ccccc2C1=O` , growth read as 72.3

Noted for `N=S(c1ccccc1[N+](=O)[O-])c1ccccc1[N+](=O)[O-]` : its growth reads 38.4

Record CS(=O)(=O)OC1CC(n2ccc(=O)[nH]c2=O)OC1COC(c1ccccc1)(c1ccccc1)c1ccccc1 (configuration not stated) , field growth: 106

response.value for `O=C(O)COc1ccc(OCC(=O)O)cc1` (field: growth) = 21.4

So, `CN1CCN(CCCN2c3ccccc3Sc3ccc(C(F)(F)F)cc32)CC1` ? Its growth was 71.2

Note to self: growth recorded for CCCCCCCCCCCCCCCCCCOCC(COP(=O)([O-])OCC[N+](C)(C)C)OC (configuration not stated) was 109
